- Tested on: Escherichia coli
- PROTOCOL DETAILS: Antibacterial activity against Escherichia coli ATCC 25922 incubated for 18 to 24 hrs by broth microdilution method
- Format: functional
Where a SMILES comes first, the peptide text is derived from it.
Kindly state MIC for each of the entries shown.
Answers are plain numbers, in µM.

CO[C@H]1/C=C/O[C@@]2(C)Oc3c(C)c(O)c4c(O)c(c(/C=N/N5CCN(C)CC5)c(O)c4c3C2=O)NC(=O)/C(C)=C\C=C\[C@H](C)[C@H](O)[C@@H](C)[C@@H](O)[C@@H](C)[C@H](OC(C)=O)[C@@H]1C	4

# return MIC for each item in the list
1. CC(C)C[C@H](NC(=O)[C@H](CCCNC(=N)N)NC(=O)[C@H](Cc1c[nH]c2ccccc12)NC(=O)[C@H](CCCNC(=N)N)NC(=O)[C@@H](NC(=O)[C@H](CCCCN)NC(=O)[C@H](Cc1c[nH]c2ccccc12)NC(=O)[C@H](CCCNC(=N)N)NC(=O)[C@H](CC(C)C)NC(=O)[C@H](CCCNC(=N)N)NC(=O)[C@@H](N)Cc1c[nH]c2ccccc12)[C@@H](C)O)C(=O)N[C@@H](CCCCN)C(N)=O (H-WRLRWKTRWRLK-NH2)
2. CC(C)C[C@H](NC(=O)[C@H](CCCNC(=N)N)NC(=O)[C@H](CCCCN)NC(=O)[C@H](CCCNC(=N)N)NC(=O)[C@@H](NC(=O)[C@H](Cc1c[nH]c2ccccc12)NC(=O)[C@H](CCCCN)NC(=O)[C@H](CCCNC(=N)N)NC(=O)[C@H](CC(C)C)NC(=O)[C@H](Cc1c[nH]c2ccccc12)NC(=O)[C@@H](N)CCCNC(=N)N)[C@@H](C)O)C(=O)N[C@@H](CCCCN)C(N)=O (H-RWLRKWTRKRLK-NH2)

[4, 16]

---

- System: Pseudomonas aeruginosa
- PROTOCOL DETAILS: Antibacterial activity against Pseudomonas aeruginosa 25349 clinical isolate incubated for 18 to 24 hrs by broth microdilution method
- Format: functional
Where a SMILES comes first, the peptide text is derived from it.
PROPERTY LABEL: MIC (µM)
Give bare numbers, in µM.

MIC in this record for CC(C)[C@H](NC(=O)[C@H](CCCNC(=N)N)NC(=O)[C@H](Cc1c[nH]c2ccccc12)NC(=O)[C@H](CCCNC(=N)N)NC(=O)[C@@H](NC(=O)[C@H](CCCCN)NC(=O)[C@H](Cc1c[nH]c2ccccc12)NC(=O)[C@H](CCCNC(=N)N)NC(=O)[C@@H](NC(=O)[C@H](CCCNC(=N)N)NC(=O)[C@@H](N)Cc1c[nH]c2ccccc12)C(C)C)[C@@H](C)O)C(=O)N[C@@H](CCCCN)C(N)=O (H-WRVRWKTRWRVK-NH2) : 32

---

- Test system: Pseudomonas aeruginosa
- PROTOCOL DETAILS: Antibacterial activity against Pseudomonas aeruginosa 25349 clinical isolate incubated for 18 to 24 hrs by broth microdilution method
- Type: functional
Where a SMILES comes first, the peptide text is derived from it.
Record form. Attribute: MIC. Fill in for each entry.

Example entries begin here.
CC1COc2c(N3CCN(C)CC3)c(F)cc3c(=O)c(C(=O)O)cn1c23 (stereo not drawn)	4 µM
C[C@@H](O)[C@H](NC(=O)[C@H](CCCNC(=N)N)NC(=O)[C@H](Cc1c[nH]c2ccccc12)NC(=O)[C@H](CCCNC(=N)N)NC(=O)[C@@H](NC(=O)[C@H](CCCNC(=N)N)NC(=O)[C@H](Cc1c[nH]c2ccccc12)NC(=O)[C@H](CCCNC(=N)N)NC(=O)[C@@H](NC(=O)[C@H](CCCNC(=N)N)NC(=O)[C@@H](N)Cc1c[nH]c2ccccc12)[C@@H](C)O)[C@@H](C)O)C(=O)N[C@@H](CCCNC(=N)N)C(N)=O (H-WRTRWRTRWRTR-NH2)	> 64 µM

We now examine a further molecule.
Record summary for CC(C)[C@H](NC(=O)[C@H](CCCCN)NC(=O)[C@H](Cc1c[nH]c2ccccc12)NC(=O)[C@H](CCCCN)NC(=O)[C@@H](NC(=O)[C@H](CCCCN)NC(=O)[C@H](Cc1c[nH]c2ccccc12)NC(=O)[C@H](CCCCN)NC(=O)[C@@H](NC(=O)[C@H](CCCCN)NC(=O)[C@@H](N)Cc1c[nH]c2ccccc12)C(C)C)C(C)C)C(=O)N[C@@H](CCCCN)C(N)=O (H-WKVKWKVKWKVK-NH2) : reported MIC = 4 µM

---

- Test system: Escherichia coli
- PROTOCOL DETAILS: Antibacterial activity against Escherichia coli UB1005 incubated for 18 to 24 hrs by broth microdilution method
- Type: functional
Where a SMILES comes first, the peptide text is derived from it.
PROPERTY LABEL: MIC (µM)
Numbers only, in µM.

// for each molecule in input: emit MIC
1. CC(C)C[C@H](NC(=O)[C@H](CCCNC(=N)N)NC(=O)[C@H](CCCCN)NC(=O)[C@H](Cc1c[nH]c2ccccc12)NC(=O)[C@@H](NC(=O)[C@H](CCCCN)NC(=O)[C@H](CCCCN)NC(=O)[C@H](CCCNC(=N)N)NC(=O)[C@H](CC(C)C)NC(=O)[C@H](CCCNC(=N)N)NC(=O)[C@@H](N)CCCNC(=N)N)[C@@H](C)O)C(=O)N[C@@H](Cc1c[nH]c2ccccc12)C(N)=O (H-RRLRKKTWKRLW-NH2)
2. CC(C)C[C@H](NC(=O)[C@H](CCCNC(=N)N)NC(=O)[C@H](CCCCN)NC(=O)[C@H](CCCNC(=N)N)NC(=O)[C@@H](NC(=O)[C@H](CCCCN)NC(=O)[C@H](CCCCN)NC(=O)[C@H](CCCNC(=N)N)NC(=O)[C@H](CC(C)C)NC(=O)[C@H](CCCNC(=N)N)NC(=O)[C@@H](N)CCCNC(=N)N)[C@@H](C)O)C(=O)N[C@@H](CCCCN)C(N)=O (H-RRLRKKTRKRLK-NH2)
3. CO[C@H]1/C=C/O[C@@]2(C)Oc3c(C)c(O)c4c(O)c(c(/C=N/N5CCN(C)CC5)c(O)c4c3C2=O)NC(=O)/C(C)=C\C=C\[C@H](C)[C@H](O)[C@@H](C)[C@@H](O)[C@@H](C)[C@H](OC(C)=O)[C@@H]1C

32
64
8

---

- Test system: Escherichia coli
- PROTOCOL DETAILS: Antibacterial activity against Escherichia coli 20411 clinical isolate incubated for 18 to 24 hrs by broth microdilution method
- Assay type: functional
Where a SMILES comes first, the peptide text is derived from it.
Cut-off 2 µM on MIC: below means yes, at or above means no.

CO[C@H]1/C=C/O[C@@]2(C)Oc3c(C)c(O)c4c(O)c(c(/C=N/N5CCN(C)CC5)c(O)c4c3C2=O)NC(=O)/C(C)=C\C=C\[C@H](C)[C@H](O)[C@@H](C)[C@@H](O)[C@@H](C)[C@H](OC(C)=O)[C@@H]1C	no
CC1COc2c(N3CCN(C)CC3)c(F)cc3c(=O)c(C(=O)O)cn1c23 (configuration not stated)	yes
CC(C)[C@H](NC(=O)[C@H](CCCNC(=N)N)NC(=O)[C@H](Cc1c[nH]c2ccccc12)NC(=O)[C@H](CCCNC(=N)N)NC(=O)[C@@H](NC(=O)[C@H](CCCCN)NC(=O)[C@H](Cc1c[nH]c2ccccc12)NC(=O)[C@H](CCCNC(=N)N)NC(=O)[C@@H](NC(=O)[C@H](CCCNC(=N)N)NC(=O)[C@@H](N)Cc1c[nH]c2ccccc12)C(C)C)C(C)C)C(=O)N[C@@H](CCCCN)C(N)=O (H-WRVRWKVRWRVK-NH2)	yes

Turning to the following compound.
# check: MIC < 2 µM for `CC(C)(O/N=C(\C(=O)N[C@@H]1C(=O)N2C(C(=O)[O-])=C(C[n+]3ccccc3)CS[C@H]12)c1csc(N)n1)C(=O)O`
yes

---

- Tested on: Pseudomonas aeruginosa
- PROTOCOL DETAILS: Antibacterial activity against Pseudomonas aeruginosa 25349 clinical isolate incubated for 18 to 24 hrs by broth microdilution method
- Format: functional
Where a SMILES comes first, the peptide text is derived from it.
Hi there, I'd appreciate the recorded MIC for every entry that follows.
One number for each entry, in µM.

CCn1cc(C(=O)O)c(=O)c2cc(F)c(N3CCNCC3)cc21 [NORFLOXACIN]	2

As a next step, examine the compound that follows.
Measured MIC, CC(C)C[C@H](NC(=O)[C@H](CCCNC(=N)N)NC(=O)[C@H](Cc1c[nH]c2ccccc12)NC(=O)[C@H](CCCNC(=N)N)NC(=O)[C@@H](NC(=O)[C@H](CCCCN)NC(=O)[C@H](Cc1c[nH]c2ccccc12)NC(=O)[C@H](CCCNC(=N)N)NC(=O)[C@H](CC(C)C)NC(=O)[C@H](CCCNC(=N)N)NC(=O)[C@@H](N)Cc1c[nH]c2ccccc12)[C@@H](C)O)C(=O)N[C@@H](CCCCN)C(N)=O (H-WRLRWKTRWRLK-NH2) : 8
